# Tested on: MPNST multicellular tumor spheroids, viability % test/control
# MEASUREMENT NOTES: Anticancer human tumor MPNST cell line growth inhibition;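 also: luminescence signal used as surrogate for viable cell amount; spheroids exposed to agents for seven days after three days of growth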
# TEST SETTINGS: second compound 1 µM; first compound 3.16 µM; active compounds read low
Hi there, I'd appreciate the recorded viability, T/C for every entry that follows.
Give bare numbers, in %.

Worked examples follow.
COc1ccc([C@@H](O)c2cc(-c3ncnc4cc(N5CCOCC5)ccc34)c(F)cc2Cl)nn1 + Cn1nnc2c(C(N)=O)ncn2c1=O: 39.5
CC(C)n1c(=O)n(C)c2cnc3cc(F)c(-c4ccc(OCCCN5CCCCC5)nc4)cc3c21 + Cn1nnc2c(C(N)=O)ncn2c1=O: 79.4
CC1COCCN1c1cc(-c2ccnn2C)c2ccnc(-c3ccn[nH]3)c2n1 (stereo unspecified) + Cn1nnc2c(C(N)=O)ncn2c1=O: 34.1
Cc1cc(C)c(CNC(=O)c2cc(-c3ccc(CN4CCOCC4)cc3)cc3c2cnn3C2CCCC2)c(=O)[nH]1 + Cn1nnc2c(C(N)=O)ncn2c1=O: 115

// each listed compound needs a value for viability, T/C
1. [2H]c1nc(C)nc([2H])c1-c1cc(NC[C@@H](C)c2cccc3c(C(=O)NC)ccnc23)ncn1 + Cn1nnc2c(C(N)=O)ncn2c1=O
2. COc1cc(C)[nH]c(=O)c1CN1CCc2c(Cl)cc(C(OC)C3COC3)c(Cl)c2C1=O (stereo unspecified) + Cn1nnc2c(C(N)=O)ncn2c1=O

[reply]
[97.3, 94.2]
